// provenance: patent US20150104459A1

Target: recombinant soluble homotrimeric HA of A/Vietnam/1203/04 (H5N1) (Influenza A virus A/Vietnam/1203/2004 (H5N1))
Assay: HA microarray, BCC supernatant
Settings: remark: other sources report otherwise
Overview of reported Trimeric HA Binding RLU across a group of binders:
Measured parameter: Trimeric HA Binding RLU (RLU)

TCN-553 (5261_C18) (antibody, V domains shown) VH: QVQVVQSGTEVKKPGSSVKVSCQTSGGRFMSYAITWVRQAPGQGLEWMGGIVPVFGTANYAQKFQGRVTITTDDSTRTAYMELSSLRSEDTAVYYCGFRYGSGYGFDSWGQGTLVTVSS VL: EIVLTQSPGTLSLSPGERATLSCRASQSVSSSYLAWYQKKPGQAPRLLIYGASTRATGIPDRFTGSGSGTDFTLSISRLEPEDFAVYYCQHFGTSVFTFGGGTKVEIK; 6560
TCN-555 (5246_L16) (antibody, V domains shown) VH: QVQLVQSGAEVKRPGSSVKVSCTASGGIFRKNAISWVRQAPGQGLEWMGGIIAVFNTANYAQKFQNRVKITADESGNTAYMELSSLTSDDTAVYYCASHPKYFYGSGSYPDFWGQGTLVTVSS VL: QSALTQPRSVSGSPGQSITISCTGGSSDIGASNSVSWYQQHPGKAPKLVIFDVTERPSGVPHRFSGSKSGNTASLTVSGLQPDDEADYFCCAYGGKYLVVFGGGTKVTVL; 876
TCN-551 (5243_D01) (antibody, V domains shown) VH: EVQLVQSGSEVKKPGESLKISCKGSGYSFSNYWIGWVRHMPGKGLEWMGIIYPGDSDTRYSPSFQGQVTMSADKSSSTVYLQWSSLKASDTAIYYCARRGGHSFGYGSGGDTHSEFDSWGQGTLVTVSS VL: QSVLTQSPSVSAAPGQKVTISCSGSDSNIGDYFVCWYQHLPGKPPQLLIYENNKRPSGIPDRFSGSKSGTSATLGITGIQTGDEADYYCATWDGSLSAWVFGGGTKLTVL; 4150
